test system: Candida albicans; assay: In vitro Anti-Candida activity, dilutions in Sabouraud's Dextrose Agar (Table III); format: cell-based; settings: 48 h, strain Lehtman, after 48 hours
Please provide measured MIC for the entries that follow.
Numbers only, in µg/mL.

// solved cases for MIC follow
chemicalString: NCc1[nH]c2ccc(Cl)cc2c1-c1ccccc1
resultNumber: 75

chemicalString: NCc1[nH]c2cc(Br)c(Cl)cc2c1-c1ccccc1
resultNumber: 150

chemicalString: NCc1[nH]c2ccc(Cl)cc2c1-c1ccc(Cl)cc1Cl
resultNumber: 37.5

Please give MIC for each item listed below.
1. NCc1[nH]c2ccc(Cl)cc2c1-c1ccccc1F
2. NCc1[nH]c2ccc(Cl)cc2c1-c1c(F)cccc1F

[75, 150]
